- Tested on: L. mexicana SUPKO (ΔNT1.1/1.2/2) cells
- PROTOCOL_TEXT: Radiolabel transport assay in SUPKO cells
- Type: cell-based, Leishmania mexicana
- CONDITIONS_USED: SUPKO cells, 100 nM radiolabel
Property: rate of uptake; scope: individual compounds

{"columns": ["CHEM_SMILES", "rate of uptake"],
 "data": [
  ["O=c1[nH]cnc2nc[nH]c12", "0.045 ± 0.004 pmol(10^7 cells)^−1s^−1"],
  ["O=c1ccn([C@@H]2O[C@H](CO)[C@@H](O)[C@H]2O)c(=O)[nH]1", "0.0014 ± 0.00009 pmol(10^7 cells)^−1s^−1"]
]}

* * *

- TESTED_TARGET: UniProt:A6N844
- Sequence (A6N844 entry or part of it): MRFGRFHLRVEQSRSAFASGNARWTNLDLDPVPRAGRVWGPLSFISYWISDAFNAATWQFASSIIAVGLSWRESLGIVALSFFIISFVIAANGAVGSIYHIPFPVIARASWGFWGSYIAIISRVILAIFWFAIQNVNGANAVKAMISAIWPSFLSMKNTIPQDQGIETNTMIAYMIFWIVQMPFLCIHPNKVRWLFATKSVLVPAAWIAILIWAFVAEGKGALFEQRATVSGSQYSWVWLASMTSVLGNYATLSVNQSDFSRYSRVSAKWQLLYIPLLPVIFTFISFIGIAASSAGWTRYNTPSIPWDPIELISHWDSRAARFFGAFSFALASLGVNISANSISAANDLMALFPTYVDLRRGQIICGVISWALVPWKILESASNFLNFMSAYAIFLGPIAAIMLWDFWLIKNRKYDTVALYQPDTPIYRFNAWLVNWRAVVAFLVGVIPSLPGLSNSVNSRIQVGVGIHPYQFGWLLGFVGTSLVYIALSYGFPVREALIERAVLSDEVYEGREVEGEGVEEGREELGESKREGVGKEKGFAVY
- PROTOCOL_TEXT: Transport assay, FurD expressed in Lmex5FURes
- CONDITIONS_USED: FurD in Lmex5FURes, inhibition of [^3H]-uracil uptake
pKi: −log10 of the molar value.

{"columns": ["CHEM_SMILES", "pKi"],
 "data": [
  ["O=c1[nH]cc(F)c(=O)[nH]1", 6.15]
]}

* * *

- TESTED_TARGET: TvagENT3 (Trichomonas vaginalis)
- Sequence (A2E5Q3 entry or part of it): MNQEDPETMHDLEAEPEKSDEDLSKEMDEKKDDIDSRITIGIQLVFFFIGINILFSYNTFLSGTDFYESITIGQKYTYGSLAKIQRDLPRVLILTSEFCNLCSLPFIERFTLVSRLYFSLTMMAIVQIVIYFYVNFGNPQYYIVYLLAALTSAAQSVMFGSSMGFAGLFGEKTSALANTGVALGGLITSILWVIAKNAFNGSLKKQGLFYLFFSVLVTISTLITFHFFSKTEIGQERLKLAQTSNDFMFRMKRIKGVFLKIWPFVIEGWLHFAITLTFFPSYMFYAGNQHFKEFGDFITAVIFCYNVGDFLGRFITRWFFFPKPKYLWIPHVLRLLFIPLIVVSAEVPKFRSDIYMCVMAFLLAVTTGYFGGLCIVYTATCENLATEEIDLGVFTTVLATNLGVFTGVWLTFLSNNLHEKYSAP
- PROTOCOL_TEXT: cell-based
- CONDITIONS_USED: TvagENT3 in SUPKO, inhibition of 50 nM [^3H]-adenosine uptake
PARAMETER_MEASURED: Ki

{"columns": ["COMPOUND", "RESULT"],
 "data": [
  ["O=c1[nH]cnc2c1ncn2[C@@H]1O[C@H](CO)[C@@H](O)[C@H]1O [inosine]", "2700 nM"]
]}
